Cited source: the supplement of paper PMC6992640

Tested on: WHIM30 (cells of a triple-negative basal-like breast cancer xenograft);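 note: PDX cells carrying CMV promoter-driven luciferase, viability read as total photon flux per second by IVIS imaging following D-luciferin, vehicle control 0.1% DMSO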
Assay: cell viability (% of vehicle); higher = less cytotoxic
Details: 10 µM; 72 h
reported-endpoint: cell viability
Just the number, please, no unit attached.

Check out these entries, answers already filled in.
molecule: CC12CCC3c4ccc(O)cc4CCC3C1CCC2OC(=O)CCC1CCCC1 (centres undefined) [Estradiol Cypionate]
reported-endpoint: cell viability
experimental-value: 130
--
molecule: CC(C)(C(=O)O)c1ccc(C(O)CCCN2CCC(C(O)(c3ccccc3)c3ccccc3)CC2)cc1.Cl (centres undefined) [Fexofenadine HCl]
reported-endpoint: cell viability
experimental-value: 108
--
molecule: Cc1c(-c2ccc(O)cc2)n(Cc2ccc(OCCN3CCCCCC3)cc2)c2ccc(O)cc12.Cl [Bazedoxifene HCl]
reported-endpoint: cell viability
experimental-value: 83.1

Lab note: need cell viability with WHIM30 for entry CC1c2cccc(O)c2C(O)=C2C(=O)C3(O)C(O)=C(C(N)=O)C(=O)C(N(C)C)C3C(O)C21.Cl (centres undefined) [Doxycycline HCl] , please look it up. 98.7

Try Cl.Cl.Fc1ccc(C(c2ccc(F)cc2)N2CCN(CC=Cc3ccccc3)CC2)cc1 [Flunarizine 2HCl] next. 87.3

Let us now turn to CCN1CCCC1CNC(=O)c1cc(S(=O)(=O)CC)c(N)cc1OC (centres undefined) [Amisulpride] 139
